Reference source for all entries: patent US20150005288A1

Consider the following compounds and their measured IC50 readings.
TARGET_ENTITY: intracellular domain of human Tie2 (GST fusion protein) (Homo sapiens, UniProt Q02763)
Construct: intracellular domain of human Tie2 (amino acids 776-1124)
Sequence (Q02763 776-1124): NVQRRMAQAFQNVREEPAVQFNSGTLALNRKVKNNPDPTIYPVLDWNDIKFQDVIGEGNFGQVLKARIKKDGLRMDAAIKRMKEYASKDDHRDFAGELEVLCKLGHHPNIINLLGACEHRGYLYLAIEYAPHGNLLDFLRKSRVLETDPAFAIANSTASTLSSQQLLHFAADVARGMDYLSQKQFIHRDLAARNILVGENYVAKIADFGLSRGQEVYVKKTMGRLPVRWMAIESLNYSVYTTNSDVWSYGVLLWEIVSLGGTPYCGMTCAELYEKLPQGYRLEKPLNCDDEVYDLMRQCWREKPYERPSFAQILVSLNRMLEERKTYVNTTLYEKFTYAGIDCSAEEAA
TEST_PROTOCOL: Tie2 kinase assay (Tie2-TR-FRET)
CONDITION: ATP concentration 1 mM, in some cases means of several independent determinations
Expressed in nM, but write only the number.

Use these answered entries as a reference point.
query_smiles=Cc1ccc(NC(=O)c2cc(N3CCCC3)ccc2Cl)cc1-n1ccn2nc(-c3cccnc3)cc12 parameter_measured=IC50 quantitative_readout=995
query_smiles=COc1cc(OC)cc(C(=O)Nc2ccc(C)c(-n3ccn4nc(-c5cccnc5)cc34)c2)c1 parameter_measured=IC50 quantitative_readout=770
query_smiles=Cc1cc(C)c(-n2ccn3nc(-c4cccnc4)cc23)cc1NC(=O)c1cc(Cl)cc(S(F)(F)(F)(F)F)c1 parameter_measured=IC50 quantitative_readout=0.7

// moving on: another record for IC50
In: What does the data say about its IC50? Entry: `Cc1ccc(NC(=O)c2cc(C#N)cc(S(F)(F)(F)(F)F)c2)c(C)c1-n1ccn2nc(-c3cccnc3)cc12`
Out: 18

* * *

TARGET_ENTITY: intracellular domain of human Tie2 (GST fusion protein) (Homo sapiens, UniProt Q02763)
Construct: intracellular domain of human Tie2 (amino acids 776-1124)
TEST_PROTOCOL: Tie2 kinase assay (Tie2-TR-FRET)
CONDITION: ATP concentration 1 mM, in some cases means of several independent determinations
PARAMETER_MEASURED: IC50 (nM)
Expressed in nM, but write only the number.

Use these answered entries as a reference point.
query_smiles=Cc1ccc(NC(=O)c2cccc(S(F)(F)(F)(F)F)c2)cc1-n1ccn2nc(-c3cnccn3)cc12 parameter_measured=IC50 quantitative_readout=220
query_smiles=N#Cc1cc(C(=O)Nc2cccc(-n3ccn4nc(-c5cccnc5)cc34)c2)cc(S(F)(F)(F)(F)F)c1 parameter_measured=IC50 quantitative_readout=980
query_smiles=Cc1cc(C(=O)Nc2cc(-n3ccn4nc(-c5cccnc5)cc34)c(C)cc2C)cc(S(F)(F)(F)(F)F)c1 parameter_measured=IC50 quantitative_readout=0.7

// moving on: another record for IC50
In: What does the data say about its IC50? Entry: `Cc1ccc(NC(=O)c2cc(N3CCNCC3)cc(S(F)(F)(F)(F)F)c2)cc1-n1ccn2nc(-c3cn[nH]c3)cc12`
Out: 0.3

* * *

Consider the following molecules and their measured pIC50 readings.
TARGET_ENTITY: intracellular domain of human Tie2 (GST fusion protein) (Homo sapiens, UniProt Q02763)
Construct: intracellular domain of human Tie2 (amino acids 776-1124)
TEST_PROTOCOL: Tie2 kinase assay (Tie2-TR-FRET)
CONDITION: ATP concentration 1 mM, in some cases means of several independent determinations
Recall that pIC50 is obtained by taking minus log10 of the concentration measured in molar.

Use these answered entries as a reference point.
query_smiles=COc1ccc(NC(=O)c2cc(Br)cc(S(F)(F)(F)(F)F)c2)cc1-n1ccn2nc(-c3cccnc3)cc12 target_entity="intracellular domain of human Tie2 (GST fusion protein) (Homo sapiens, UniProt Q02763)" quantitative_readout=6.23
query_smiles=Cc1ccc(NC(=O)c2cccc(N(C)C)c2)cc1-n1ccn2nc(-c3cccnc3)cc12 target_entity="intracellular domain of human Tie2 (GST fusion protein) (Homo sapiens, UniProt Q02763)" quantitative_readout=6.22
query_smiles=Cc1ccc(NC(=O)c2cccc(C(F)(F)F)c2)cc1-n1ccn2nc(-c3cccnc3)cc12 target_entity="intracellular domain of human Tie2 (GST fusion protein) (Homo sapiens, UniProt Q02763)" quantitative_readout=6.49
query_smiles=Cc1ccc(NC(=O)c2cc(C(C)(C)O)cc(S(F)(F)(F)(F)F)c2)cc1-n1ccn2nc(-c3cccnc3)c(F)c12 target_entity="intracellular domain of human Tie2 (GST fusion protein) (Homo sapiens, UniProt Q02763)" quantitative_readout=9.00
query_smiles=Cc1ccc(NC(=O)c2cc(C#N)cc(C(F)(F)F)c2)cc1-n1ccn2nc(-c3cccnc3)cc12 target_entity="intracellular domain of human Tie2 (GST fusion protein) (Homo sapiens, UniProt Q02763)" quantitative_readout=6.89
query_smiles=Cc1cc(C)c(-n2ccn3nc(-c4cccnc4)cc23)cc1NC(=O)c1cc(CC(C)(C)O)cc(S(F)(F)(F)(F)F)c1 target_entity="intracellular domain of human Tie2 (GST fusion protein) (Homo sapiens, UniProt Q02763)" quantitative_readout=9.40

// moving on: another record for pIC50
In: What does the data say about its pIC50? Entry: `Cc1ccc(NC(=O)c2cc(N3CCN(C)CC3)cc(S(F)(F)(F)(F)F)c2)cc1-n1cc(C)n2nc(-c3cn[nH]c3)cc12`
Out: 9.52

* * *

TARGET_ENTITY: intracellular domain of human Tie2 (GST fusion protein) (Homo sapiens)
Construct: intracellular domain of human Tie2 (amino acids 776-1124)
TEST_PROTOCOL: Tie2 kinase assay (Tie2-TR-FRET)
CONDITION: ATP concentration 1 mM, in some cases means of several independent determinations
Experimental: The Tie2-inhibitory activity of the substances according to the invention was determined with the aid of one of the Tie2-TR-FRET assays described in the sections below at an ATP concentration of 1 mM (TR-FRET=Time-Resolved Fluorescence Resonance Energy Transfer): […]
PARAMETER_MEASURED: pIC50
Recall that pIC50 is obtained by taking minus log10 of the concentration measured in molar.

Use these answered entries as a reference point.
query_smiles=Cc1cc(C)c(-n2ccn3nc(-c4cccnc4)cc23)cc1NC(=O)c1cc(C#N)cc(C(C)(C)C)c1 quantitative_readout=9.52
query_smiles=N#Cc1cc(C(=O)Nc2ccc(Cl)c(-n3ccn4nc(-c5cccnc5)cc34)c2)cc(S(F)(F)(F)(F)F)c1 quantitative_readout=8.04
query_smiles=Cc1ccc(NC(=O)c2ccc(Cl)c(N3CCCCC3)c2)cc1-n1ccn2nc(-c3cccnc3)cc12 quantitative_readout=6.48

// moving on: another record for pIC50
In: What does the data say about its pIC50? Entry: `Cc1ccc(NC(=O)c2cc(C#N)cc(C(C)(C)C)c2)cc1-n1ccn2nc(-c3cccnc3)cc12`
Out: 8.92

* * *

TARGET_ENTITY: intracellular domain of human Tie2 (GST fusion protein) (Homo sapiens, UniProt Q02763)
Construct: intracellular domain of human Tie2 (amino acids 776-1124)
TEST_PROTOCOL: Tie2 kinase assay (Tie2-TR-FRET)
CONDITION: ATP concentration 1 mM, in some cases means of several independent determinations
We label by threshold. Values of IC50 strictly beneath 6 nM are Satisfied. Values of 6 nM and up are Not satisfied.

In: Is the reported IC50 for Cc1cc(C)c(-n2ccn3nc(-c4cccnc4)cc23)cc1NC(=O)c1cccc(C(C)(C)F)c1 [Example 142] strictly below 6 nM?
Out: Satisfied

In: Is the reported IC50 for Cc1ccc(NC(=O)c2cc(Br)cc(S(F)(F)(F)(F)F)c2)cc1-n1ccn2nc(-c3cccnc3)cc12 [Example 89] strictly below 6 nM?
Out: Satisfied

In: Is the reported IC50 for Cc1ccc(NC(=O)c2ccnc(N3CCCC3)c2)cc1-n1ccn2nc(-c3cccnc3)cc12 [Example 67] strictly below 6 nM?
Out: Not satisfied

In: Is the reported IC50 for COC(=O)Cc1cc(C(=O)Nc2cc(-n3ccn4nc(-c5cccnc5)cc34)c(C)cc2C)cc(S(F)(F)(F)(F)F)c1 [Example 152] strictly below 6 nM?
Out: Satisfied

In: Is the reported IC50 for Cc1cc(C)c(-n2ccn3nc(-c4cccnc4)cc23)cc1NC(=O)c1cccc(OCCN(C)C)c1 [Example 137] strictly below 6 nM?
Out: Not satisfied

In: Is the reported IC50 for Cc1ccc(NC(=O)c2cc(OCCN)cc(S(F)(F)(F)(F)F)c2)cc1-n1ccn2nc(-c3cccnc3)cc12 [Example 22] strictly below 6 nM?
Out: Satisfied

* * *

Consider the following molecules and their measured pIC50 readings.
TARGET_ENTITY: intracellular domain of human Tie2 (GST fusion protein) (Homo sapiens, UniProt Q02763)
Construct: intracellular domain of human Tie2 (amino acids 776-1124)
TEST_PROTOCOL: Tie2 kinase assay (Tie2-TR-FRET)
CONDITION: ATP concentration 1 mM, in some cases means of several independent determinations
Recall that pIC50 is obtained by taking minus log10 of the concentration measured in molar.

query_smiles=Cc1cc(C)c(-n2ccn3nc(-c4cccnc4)cc23)cc1NC(=O)c1cccc(OC(F)(F)F)c1 quantitative_readout=8.85
query_smiles=O=C(Nc1cccc(-n2ccn3nc(-c4cccnc4)cc23)c1O)c1cccc(S(F)(F)(F)(F)F)c1 quantitative_readout=6.60
query_smiles=Cc1ccc(NC(=O)c2cc(C#N)cc(S(F)(F)(F)(F)F)c2)cc1-n1ccn2nc(-c3cnccn3)cc12 quantitative_readout=7.55
query_smiles=Cc1cc(C)c(-n2ccn3nc(-c4cccnc4)cc23)cc1NC(=O)c1cccc(OC(F)F)c1 quantitative_readout=7.37

In: Provide value of pIC50 for this record tested with intracellular domain of human Tie2 (GST fusion protein) (Homo sapiens, UniProt Q02763): `Cc1ccc(NC(=O)c2cc(CN3CC[C@H](O)C3)cc(S(F)(F)(F)(F)F)c2)cc1-n1ccn2nc(-c3cccnc3)cc12`
Out: 8.68

In: Provide value of pIC50 for this record tested with intracellular domain of human Tie2 (GST fusion protein) (Homo sapiens, UniProt Q02763): `N#Cc1cc(C(=O)Nc2ccc(F)c(-n3ccn4nc(-c5cccnc5)cc34)c2)cc(S(F)(F)(F)(F)F)c1`
Out: 7.47

In: Provide value of pIC50 for this record tested with intracellular domain of human Tie2 (GST fusion protein) (Homo sapiens, UniProt Q02763): `N#Cc1cc(C(=O)Nc2ccc(C(F)(F)F)c(-n3ccn4nc(-c5cccnc5)cc34)c2)cc(S(F)(F)(F)(F)F)c1`
Out: 6.46

In: Provide value of pIC50 for this record tested with intracellular domain of human Tie2 (GST fusion protein) (Homo sapiens, UniProt Q02763): `Cc1ccc(NC(=O)c2ccnc(C(C)(C)C)c2)cc1-n1ccn2nc(-c3cccnc3)cc12`
Out: 7.39
